- TARGET OR TEST SYSTEM: Transient receptor potential cation channel subfamily V member 1 (Homo sapiens)
- Sequence (Q8NER1 whole entry): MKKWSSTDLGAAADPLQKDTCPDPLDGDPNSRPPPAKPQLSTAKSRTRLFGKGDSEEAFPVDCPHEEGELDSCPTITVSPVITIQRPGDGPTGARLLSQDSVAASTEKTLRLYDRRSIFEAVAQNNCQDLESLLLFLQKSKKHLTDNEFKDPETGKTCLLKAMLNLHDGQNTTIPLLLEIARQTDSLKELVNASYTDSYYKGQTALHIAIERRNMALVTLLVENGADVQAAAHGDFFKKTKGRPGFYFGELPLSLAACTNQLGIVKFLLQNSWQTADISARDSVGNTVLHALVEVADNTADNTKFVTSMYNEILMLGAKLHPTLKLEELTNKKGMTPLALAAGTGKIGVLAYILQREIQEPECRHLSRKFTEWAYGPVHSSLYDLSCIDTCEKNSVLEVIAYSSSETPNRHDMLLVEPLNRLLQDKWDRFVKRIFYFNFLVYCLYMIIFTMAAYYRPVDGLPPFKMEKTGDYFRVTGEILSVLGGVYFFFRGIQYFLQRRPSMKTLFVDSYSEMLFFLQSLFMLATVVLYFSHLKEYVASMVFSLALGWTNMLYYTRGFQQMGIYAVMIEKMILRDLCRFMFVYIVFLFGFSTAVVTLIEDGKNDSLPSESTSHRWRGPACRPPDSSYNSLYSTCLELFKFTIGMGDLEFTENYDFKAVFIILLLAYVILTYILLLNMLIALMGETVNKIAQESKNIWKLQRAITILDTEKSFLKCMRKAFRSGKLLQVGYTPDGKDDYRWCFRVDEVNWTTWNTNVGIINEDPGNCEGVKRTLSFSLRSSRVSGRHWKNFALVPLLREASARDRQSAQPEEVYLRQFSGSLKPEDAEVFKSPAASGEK
- ASSAY REMARKS: Antagonist activity at human recombinant TRPV1 expressed in HEK293 cells assessed as desensitization by measuring inhibition of capsaicin-induced intracellular calcium accumulation preincubated for 5 mins followed by capsaicin stimulation by Fluo4-AM based assay
IC50 for assorted compounds

The cases that follow already have their IC50 on record.
COc1ccc(CNC(=O)CCCc2ccc(-c3cccnc3)s2)cc1 :: > 50 µM
O=C(CCCc1ccc(-c2cccnc2)s1)NCCc1ccc(O)c(O)c1 :: > 10 µM
O=C(CCCc1ccc(I)s1)NCCc1ccc(O)c(O)c1 :: 0.46 µM
O=C(CCCc1ccc(-c2cccnc2)s1)NCc1ccccc1 :: > 100 µM

Exercise: Need IC50, item "O=C(CCCc1ccccc1)NCc1ccccc1"
Solution: > 100 µM

Exercise: Repeat for the following compound: "O=C(CCCc1ccccc1)NCCc1ccc(O)c(O)c1"
Solution: 5.84 µM
